# tested system: PgiCAγ (Porphyromonas gingivalis)
# Sequence (Q7MV79 1-192): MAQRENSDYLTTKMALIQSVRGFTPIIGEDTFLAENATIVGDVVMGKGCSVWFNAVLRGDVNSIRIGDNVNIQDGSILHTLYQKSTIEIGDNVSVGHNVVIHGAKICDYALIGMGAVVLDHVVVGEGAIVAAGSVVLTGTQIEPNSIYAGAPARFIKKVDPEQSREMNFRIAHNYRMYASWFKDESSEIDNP
Field: Ki. Provide a value for each of the compounds that follow.
One number for each entry, in nM.

For each of the items listed, what is its Ki?
1. CC(=O)c1c(O)c(C)c(O)c2c1OC1=CC(=O)C(=C(C)Nc3cc(S(N)(=O)=O)ccc3O)C(=O)[C@@]12C
2. COc1cc(OC)c2c(c1Cl)O[C@]1(C2=O)C(=O)C(C(CC(=O)NCc2ccc(S(N)(=O)=O)cc2)c2ccc(SC)cc2)C(=O)C[C@H]1C (some centres unmarked)

1840
853

###

Field: Ki. Provide a value for each of the molecules that follow.
# tested system: CpsCAγ (Colwellia psychrerythraea)
# Sequence (Q48AV3 entry or part of it): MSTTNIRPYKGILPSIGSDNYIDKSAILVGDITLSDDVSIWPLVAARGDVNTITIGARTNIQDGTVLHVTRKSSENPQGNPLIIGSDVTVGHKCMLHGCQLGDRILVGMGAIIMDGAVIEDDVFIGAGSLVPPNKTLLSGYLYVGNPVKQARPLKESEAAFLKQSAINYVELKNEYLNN
# assay remarks: biochemical
# Format: biochemical
One number for each entry, in nM.

// worked examples, Ki included
COc1cc(OC)c2c(c1Cl)O[C@@]1(C(=O)C(=CNCCc3ccc(S(N)(=O)=O)cc3)C(=O)C[C@H]1C)C2=O	726
CC(=O)c1c(O)c(C)c(O)c2c1OC1=CC(=O)C(=C(C)Nc3ccc(S(N)(=O)=O)cc3O)C(=O)[C@@]12C	723
COc1cc(OC)c2c(c1Cl)OC1(C(=O)C=C(Nc3ccc(S(N)(=O)=O)cc3)CC1C)C2=O (centres unmarked)	939
COc1cc(OC)c2c(c1Cl)OC1(C(=O)C=C(NCc3ccc(S(N)(=O)=O)cc3)CC1C)C2=O (centres unmarked)	900

Here's the next entry for you.
What does the data say about its Ki? Entry: CC(=O)c1c(O)c(C)c(O)c2c1OC1=CC(=O)C(=C(C)Nc3cc(S(N)(=O)=O)ccc3O)C(=O)[C@@]12C 809

###

Assay system PgiCAγ (Porphyromonas gingivalis); read-out recorded as Ki.
Numbers only, in nM.

// worked examples, Ki included
COc1cc(OC)c2c(c1Cl)O[C@@]1(C(=O)/C(=C\NCc3ccc(S(N)(=O)=O)cc3)C(=O)C[C@H]1C)C2=O	1270
COc1cc(OC)c2c(c1Cl)OC1(C(=O)C=C(NCCS(N)(=O)=O)CC1C)C2=O (stereo not drawn)	92.1
COc1cc(OC)c2c(c1Cl)O[C@]1(C2=O)C(=O)C(C(CC(=O)NCC(=O)Nc2ccc(S(N)(=O)=O)cc2)c2ccc(SC)cc2)C(=O)C[C@H]1C (stereo partly drawn)	2320
COc1cc(OC)c2c(c1Cl)OC1(C(=O)C=C(Nc3ccc(S(N)(=O)=O)cc3)CC1C)C2=O (stereo not drawn)	820
CC(=O)c1c(O)c(C)c(O)c2c1OC1=CC(=O)C(=C(C)Nc3ccc(S(N)(=O)=O)cc3O)C(=O)[C@@]12C	897

For each of the items listed, what is its Ki?
1. COc1cc(OC)c2c(c1Cl)OC1(C(=O)C=C(NCc3ccc(S(N)(=O)=O)cc3)CC1C)C2=O (stereo not drawn)
2. COc1cc(OC)c2c(c1Cl)O[C@]1(C2=O)C(=O)C(C(CC(=O)NCCc2ccc(S(N)(=O)=O)cc2)c2ccc(SC)cc2)C(=O)C[C@H]1C (stereo partly drawn)
3. COc1cc(OC)c2c(c1Cl)O[C@@]1(C(=O)C(=CNCCc3ccc(S(N)(=O)=O)cc3)C(=O)C[C@H]1C)C2=O
4. COc1cc(OC)c2c(c1Cl)OC1(C(=O)C=C(Nc3ccc(S(N)(=O)=O)cc3O)CC1C)C2=O (stereo not drawn)

1: 661; 2: 854; 3: 602; 4: 584
